Recorded herbicide rating (0-9) for the following compounds
System: Galium, Galium aparine
Test: Preemergence herbicidal evaluation, GALAP
Assay type: in vivo
Conditions: 0.2500 kg/ha
The response must contain the number and no unit.

Study these solved cases before continuing.
compound: COC(=O)COc1noc2ccc(-n3c(=O)cc(C(F)(F)F)n(C)c3=O)cc12
herbicide rating (0-9): 4.0
//
compound: COc1ccc(C)cc1-c1nsc2ccc(-n3c(=O)cc(C(F)(F)F)n(C)c3=O)cc12
herbicide rating (0-9): 9.0
//
compound: Cn1c(C(F)(F)F)cc(=O)n(-c2ccc3onc(-c4ccccc4)c3c2)c1=O
herbicide rating (0-9): 8.0
//
compound: Cc1nsc2ccc(-n3c(=O)cc(C(F)(F)F)n(C)c3=O)cc12
herbicide rating (0-9): 9.0

Briefly, herbicide rating (0-9) measured for COC(=O)C(C)Oc1c(C)cc(C)cc1-c1nsc2ccc(-n3c(=O)cc(C(F)(F)F)n(C)c3=O)cc12 (stereo not drawn) : 2.0

The measured herbicide rating (0-9) associated with CCc1ccc(-c2nsc3ccc(-n4c(=O)cc(C(F)(F)F)n(C)c4=O)cc23)cc1 reads 6.0

* * *

Test system: ABUTH
Experiment: Postemergence herbicidal evaluation
Format: in vivo
Settings: 0.0625-0.0640 kg/ha
readout_name: herbicidal effect rating
Quick one: just the number, no unit, thanks!

Take a look at these entries with their results.
sample_smiles: O=C1C2=C(CCCC2)C(=O)N1c1ccc2snc(-c3ccccc3)c2c1
target_or_system: ABUTH
herbicidal effect rating: 8.6
//
sample_smiles: Cc1nsc2ccc(N3C(=O)C4=C(CCCC4)C3=O)cc12
target_or_system: ABUTH
herbicidal effect rating: 9.0
//
sample_smiles: O=C1C2=C(CCCC2)C(=O)N1c1ccc2sncc2c1
target_or_system: ABUTH
herbicidal effect rating: 9.0
//
sample_smiles: Cn1c(C(F)(F)F)cc(=O)n(-c2ccc3snc(-c4ccccc4)c3c2)c1=O
target_or_system: ABUTH
herbicidal effect rating: 9.0

Attention now shifts to the item below.
Measured herbicidal effect rating of Cc1nsc2ccc(-n3c(=O)cc(C(F)(F)F)n(C)c3=O)cc12 : 9.0

* * *

Test system: ORYSAT Rice, Tebonnet
Assay: Rice tolerance, flooded paddy (Table IV)
Type: in vivo, Oryza sativa
Parameters: scale not given here
Conditions: 0.1250 kg/ha, crop tolerance
Entries and their measured herbicidal effect rating follow.
Lab note: record just the number, no unit beside it.

Consider the reported herbicidal effect rating for these molecules:
sample_smiles: CCCCC(=O)c1nsc2ccc(-n3c(=O)cc(C(F)(F)F)n(C)c3=O)cc12
herbicidal effect rating: 3.0
//
sample_smiles: COC(=O)COc1ccc(C)cc1-c1noc2ccc(-n3c(=O)cc(C(F)(F)F)n(C)c3=O)c(Cl)c12
herbicidal effect rating: 0.0
//
sample_smiles: Cc1ccc(OCC(=O)OCC2(c3ccccc3)CC2)c(-c2nsc3ccc(-n4c(=O)cc(C(F)(F)F)n(C)c4=O)cc23)c1
herbicidal effect rating: 0.0
//
sample_smiles: Cn1c(C(F)(F)F)cc(=O)n(-c2ccc3snc(C(=O)C(C)(C)C)c3c2)c1=O
herbicidal effect rating: 7.0
//
sample_smiles: COC(=O)COc1cc(C)ccc1-c1nsc2ccc(-n3c(=O)cc(C(F)(F)F)n(C)c3=O)cc12
herbicidal effect rating: 6.0

The measured herbicidal effect rating that CCOC(=O)COc1ccc(C)cc1-c1nsc2ccc(-n3c(=O)cc(C(F)(F)F)n(C)c3=O)cc12 showed for ORYSAT Rice, Tebonnet is 0.0

The molecule COC(=O)COc1ccc(C)cc1-c1nsc2ccc(-n3c(=O)cc(C(F)(F)F)n(C)c3=O)cc12 , tested on ORYSAT Rice, Tebonnet, showed herbicidal effect rating of 3.0

* * *

Tested on: CYPSE Flatsedge
Assay: Preemergence weed control, flooded paddy (Table III)
Type: in vivo, Cyperus serotinus
Design: scale not given here
Conditions: 0.1250 kg/ha
readout_name: herbicidal effect rating
Give your answer as a number; write no unit.

compound: Cc1nsc2ccc(-n3c(=O)cc(C(F)(F)F)n(C)c3=O)cc12 [Compound 6]
target_or_system: CYPSE Flatsedge
herbicidal effect rating: 7.0

Form field herbicidal effect rating, entry CCc1ccc(-c2nsc3ccc(-n4c(=O)cc(C(F)(F)F)n(C)c4=O)cc23)cc1 [Compound 5] : 6.0

Form field herbicidal effect rating, entry Cc1cc(O)c(-c2nsc3ccc(-n4c(=O)cc(C(F)(F)F)n(C)c4=O)cc23)cc1C [Compound 11] : 2.0

Record COC(=O)COc1cc(C)c(C)cc1-c1nsc2ccc(-n3c(=O)cc(C(F)(F)F)n(C)c3=O)cc12 [Compound 12] , field herbicidal effect rating: 8.0

* * *

System: CASOB
Assay: Preemergence herbicidal evaluation
Type: in vivo
Design: scale not given here
Details: 0.1250 kg/ha
readout_name: herbicidal effect rating

// solved cases for herbicidal effect rating follow
molecule: O=C1C2=C(CCCC2)C(=O)N1c1ccc2snc(-c3ccccc3)c2c1 [A]
herbicidal effect rating: 1.5
--
molecule: Cn1c(C(F)(F)F)cc(=O)n(-c2ccc3snc(-c4ccccc4)c3c2)c1=O [Compound 4]
herbicidal effect rating: 6.0
--
molecule: Cc1nsc2ccc(-n3c(=O)cc(C(F)(F)F)n(C)c3=O)cc12 [Compound 6]
herbicidal effect rating: 6.5
--
molecule: O=C1C2=C(CCCC2)C(=O)N1c1ccc2sncc2c1 [C]
herbicidal effect rating: 0.0

Record CN(C)C(=O)c1nsc2ccc(-n3c(=O)cc(C(F)(F)F)n(C)c3=O)cc12 [Compound 329] ; system CASOB; herbicidal effect rating = 9.0

Note to self: herbicidal effect rating of Cc1nsc2ccc(N3C(=O)C4=C(CCCC4)C3=O)cc12 [B] with CASOB was 0.0

* * *

Test system: Barnyardgrass, Echinochloa crus-galli
Experiment: Postemergence herbicidal evaluation, ECHCG
Format: in vivo, (L.) Beau
Conditions: 0.0630 kg/ha
readout_name: herbicide rating (0-9)
// print number alone

The cases that follow already have their herbicide rating (0-9) on record.
compound: Cc1ccc(OCC(=O)OC(C)(C)C)c(-c2nsc3ccc(-n4c(=O)cc(C(F)(F)F)n(C)c4=O)cc23)c1 [Compound 68]
target_or_system: Barnyardgrass, Echinochloa crus-galli
herbicide rating (0-9): 5.0

compound: CC#CCOC(=O)COc1ccc(C)cc1-c1nsc2ccc(-n3c(=O)cc(C(F)(F)F)n(C)c3=O)cc12 [Compound 75]
target_or_system: Barnyardgrass, Echinochloa crus-galli
herbicide rating (0-9): 9.0

compound: COC(=O)C(C)Oc1c(C)cc(C)cc1-c1nsc2ccc(-n3c(=O)cc(C(F)(F)F)n(C)c3=O)cc12 (stereo not drawn) [Compound 27]
target_or_system: Barnyardgrass, Echinochloa crus-galli
herbicide rating (0-9): 7.0

compound: Cc1ccc(OCC(=O)OCC#Cc2ccccc2)c(-c2nsc3ccc(-n4c(=O)cc(C(F)(F)F)n(C)c4=O)cc23)c1 [Compound 73]
target_or_system: Barnyardgrass, Echinochloa crus-galli
herbicide rating (0-9): 9.0

compound: COc1ccc(C)cc1-c1nsc2ccc(-n3c(=O)cc(C)n(C)c3=O)cc12 [Compound 24]
target_or_system: Barnyardgrass, Echinochloa crus-galli
herbicide rating (0-9): 0.0

The value of herbicide rating (0-9) measured for the compound Cc1ccc(OC(C)C(=O)OCc2ccco2)c(-c2nsc3ccc(-n4c(=O)cc(C(F)(F)F)n(C)c4=O)cc23)c1 (stereo not drawn) [Compound 79] turned out to be 9.0

The measured herbicide rating (0-9) associated with COC(=O)C(C)Oc1ccc(C)cc1-c1nsc2ccc(-n3c(=S)cc(C(F)(F)F)n(C)c3=O)cc12 (stereo not drawn) [Compound 33] reads 9.0

Reported herbicide rating (0-9) ( COc1c(C)cc(C)cc1-c1nsc2ccc(-n3c(=O)cc(C(F)(F)F)n(C)c3=O)cc12 [Compound 18] ) = 4.0

Sure, the documented herbicide rating (0-9) for CC#CCOC(=O)C(C)Oc1ccc(C)cc1-c1nsc2ccc(-n3c(=O)cc(C(F)(F)F)n(C)c3=O)cc12 (stereo not drawn) [Compound 80] is 9.0

// recorded herbicide rating (0-9) for CC(=O)OCc1nsc2ccc(-n3c(=O)cc(C(F)(F)F)n(C)c3=O)cc12 [Compound 32] : 2.0

Short answer for COc1cc(C)c(C)c(C)c1-c1nsc2ccc(-n3c(=O)cc(C(F)(F)F)n(C)c3=O)cc12 [Compound 34] : herbicide rating (0-9) was 1.0

Data point: Cc1ccc(OCC(=O)OC2CCCC2)c(-c2nsc3ccc(-n4c(=O)cc(C(F)(F)F)n(C)c4=O)cc23)c1 [Compound 84] ; herbicide rating (0-9) = 9.0

Memo: Cc1ccc(OC(C)C(=O)OCCCl)c(-c2nsc3ccc(-n4c(=O)cc(C(F)(F)F)n(C)c4=O)cc23)c1 (stereo not drawn) [Compound 81] , reported herbicide rating (0-9): 9.0

// Cn1c(C(F)(F)F)cc(=O)n(-c2ccc3snc(Cl)c3c2)c1=O [Compound 37] : herbicide rating (0-9) value = 0.0

Reported herbicide rating (0-9) of COCc1nsc2ccc(-n3c(=O)cc(C(F)(F)F)n(C)c3=O)cc12 [Compound 31] : 4.0

Origin of the recorded values: patent US6156700A
